Tested on: 282377-053-R-J1-PDC tumor spheroids, viability;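 also: spheroids exposed to drugs for seven days before readout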
Assay: Anticancer human tumor 282377-053-R-J1-PDC patient-derived colon adenocarcinoma cell line growth inhibition [TAK]
Conditions: second compound 0.3 µM; first compound 1 µM; stronger effect = lower value; spheroids with HUVEC and MSC
Entries and their measured viability, T/C follow.
I only need the number, in %, no unit after it.

What reported viability, T/C corresponds to CC(C)(C)c1nc(-c2cccc(NS(=O)(=O)c3c(F)cccc3F)c2F)c(-c2ccnc(N)n2)s1 + CC(C)NCC(C(=O)N1CCN(c2ncnc3c2C(C)CC3O)CC1)c1ccc(Cl)cc1 on 282377-053-R-J1-PDC tumor spheroids, viability?
72

Further cases:
Lab note: need viability, T/C for Cc1nc(NC(=O)N2CCCC2C(N)=O)sc1-c1ccnc(C(C)(C)C(F)(F)F)c1 (centres undefined) + CC(C)NCC(C(=O)N1CCN(c2ncnc3c2C(C)CC3O)CC1)c1ccc(Cl)cc1 on 282377-053-R-J1-PDC tumor spheroids, viability, anyone have it?
89.8

API: value(readout= viability, T/C, system= 282377-053-R-J1-PDC tumor spheroids, viability, query= COc1c(OCCCN2CCOCC2)ccc2c3n(c(=NC(=O)c4cnc(N)nc4)nc12)CCN3 + CC(C)NCC(C(=O)N1CCN(c2ncnc3c2C(C)CC3O)CC1)c1ccc(Cl)cc1 );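 also: spheroids exposed to drugs for seven days before readout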
64.3

Hello, I am looking for reported viability, T/C with 282377-053-R-J1-PDC tumor spheroids, viability for CCCS(=O)(=O)Nc1ccc(F)c(C(=O)c2c[nH]c3ncc(-c4ccc(Cl)cc4)cc23)c1F + CC(C)NCC(C(=O)N1CCN(c2ncnc3c2C(C)CC3O)CC1)c1ccc(Cl)cc1 . Could you help?
79.8
